# experiment: log P determination by HPLC on reversed-phase columns (C 18), analogous to OECD Guideline 117
# Format: physicochemical
# condition_parameters: reversed-phase HPLC column (C 18), pH 2.7, Table 3; HPLC, acidic range, pH 2.7; read-out: logP[a]
# Experimental: The log P values were determined analogously to OECD Guideline 117 (EC Directive 92/69/EEC) by HPLC (high-performance liquid chromatography) using reversed-phase columns (C 18), by the following methods: [a] […] Calibration is effected with solutions of a homologous series of unbranched alkan-2-ones (having 3 to 16 carbon atoms) with known log P values (log P values determined on the basis of the retention times by linear interpolation between two successive alkanones).
quantity_kind: chromatographic logP

These solved cases illustrate the format of a correct answer.
Cc1cc(F)c(N2C(=O)NC(C)C2=O)cc1SCC(F)(F)F (centres unmarked): 2.34
Cc1cc(F)c(N2C(=O)CNC2=S)cc1SCC(F)(F)F: 2.53
Cc1cc(F)c(N2C(=O)CNC2=O)cc1SCC(F)(F)F: 2.11

(P) Cc1cc(F)c(N2C(=O)NC(C)(C)C2=O)cc1SCC(F)(F)F
(Q) Cc1cc(F)c(N2C(=O)CNC2=O)cc1[S+]([O-])CC(F)(F)F (centres unmarked)
// compare: P vs Q , metric chromatographic logP, want the smaller To answer, give the label that identifies your chosen option.
Q
(Q: 1.33, P: 2.61)

###

# experiment: log P determination by HPLC on reversed-phase columns (C 18), analogous to OECD Guideline 117
# Type: physicochemical
# condition_parameters: reversed-phase HPLC column (C 18), pH 2.7, method [a]; read-out: logP[a]
# Procedure: The log P values were determined analogously to OECD Guideline 117 (EC Directive 92/69/EEC) by HPLC (high-performance liquid chromatography) using reversed-phase columns (C 18), by the following methods: [a] […] Calibration is effected with solutions of a homologous series of unbranched alkan-2-ones (having 3 to 16 carbon atoms) with known log P values (log P values determined on the basis of the retention times by linear interpolation between two successive alkanones).
quantity_kind: chromatographic logP

Here are 4 compounds together with their reported answers.
CCNC(=O)N1C(=O)N(c2cc(SCC(F)(F)F)c(C)cc2F)C(=O)C1C (stereo not shown): 3.38
CCNC(=O)N1C(=O)N(c2cc([S+]([O-])CC(F)(F)F)c(C)cc2F)C(=O)C1C (stereo not shown): 2.42
Cc1cc(F)c(N2C(=O)N(C(=O)NC3CC3)C(C)(C)C2=O)cc1[S+]([O-])CC(F)(F)F (stereo not shown): 2.73
Cc1cc(F)c(N2C(=O)CN(C(=O)NCC(F)(F)F)C2=O)cc1[S+]([O-])CC(F)(F)F (stereo not shown): 2.46

(A) Cc1cc(F)c(N2C(=O)N(C(=O)NC3CC3)C(C)(C)C2=O)cc1SCC(F)(F)F
(B) Cc1cc(F)c(N2C(=O)CN(C(=O)N3CCOCC3)C2=O)cc1[S+]([O-])CC(F)(F)F (stereo not shown)
(C) Cc1cc(F)c(N2C(=O)CN(C(=O)N3CCOCC3)C2=O)cc1SCC(F)(F)F
Rank descending by chromatographic logP. Your task in answering is to list the labels in the requested order.
A, C, B
(A: 3.76, C: 2.58, B: 1.75)

(1) Cc1cc(F)c(N2C(=O)CN(C(=O)NC3CC3)C2=S)cc1SCC(F)(F)F
(2) Cc1cc(F)c(N2C(=O)CN(C(=O)NC3CC3)C2=O)cc1[S+]([O-])CC(F)(F)F (stereo not shown)
Which record shows the lower chromatographic logP: the first, 1 , or the second, 2 ? Selection: enter the item's label.
2

###

# experiment: log P determination by HPLC on reversed-phase columns (C 18), analogous to OECD Guideline 117
# Assay type: physicochemical
# condition_parameters: method [b]
quantity_kind: logP[b]

Consider the worked cases shown below.
O=C(NCc1ccccc1)N1CC(=O)N(c2cc(SCC(F)(F)F)c(Cl)cc2Cl)C1=O: 3.90
Cc1cc(Cl)c(N2C(=O)CN(C(=O)NCC(C)C)C2=O)cc1SCC(F)(F)F: 3.78

(P) Cc1cc(Cl)c(N2C(=O)CN(C(=O)Nc3cccc(Cl)c3)C2=O)cc1[S+]([O-])CC(F)(F)F (racemic)
(Q) Cc1cc(F)c(N2C(=O)CN(C(=O)N3CCN(C)CC3)C2=O)cc1[S+]([O-])CC(F)(F)F (stereo not shown)
Please indicate which entry, P or Q , has the lower recorded logP[b] value. API: response body contains the label of the selected item.
Q
(Q: 1.61, P: 3.50)

(1) Cc1cc(F)c(N2C(=O)CN(C(=O)Nc3ccc(F)cc3)C2=O)cc1SCC(F)(F)F
(2) Cc1cc(F)c(N2C(=O)CN(C(=O)N(C)C)C2=O)cc1[S+]([O-])CC(F)(F)F (stereo not shown)
Endpoint returns whichever of 1 and 2 has the numerically higher logP[b]. Could you answer with the label of the item you picked?
1

###

# experiment: log P determination by HPLC on reversed-phase columns (C 18), analogous to OECD Guideline 117
# Type: physicochemical
# condition_parameters: method [a]
quantity_kind: logP[a]

Cc1cc(C)c(N2C(=O)CN(C(=O)NCC(C)C)C2=O)cc1SCC(F)(F)F [compound 34]: 3.80
Cc1cc(C)c(N2C(=O)CN(C(=O)NCc3ccccc3)C2=O)cc1SCC(F)(F)F [compound 92]: 3.75
Cc1cc(C)c(N2C(=O)CN(C(=O)NC(C)(C)C)C2=O)cc1SCC(F)(F)F [compound 33]: 3.86
Cc1cc(C)c([S+]([O-])CC(F)(F)F)cc1N1C(=O)CN(C(=O)NC2CC2)C1=O (centres unmarked) [compound 60]: 2.24
Cc1cc(F)c(N2C(=O)CN(C(=O)Nc3ccc(F)cc3)C2=O)cc1[S+]([O-])CC(F)(F)F (centres unmarked) [compound 41]: 2.92

###

# experiment: log P determination by HPLC on reversed-phase columns (C 18), analogous to OECD Guideline 117
# Assay type: physicochemical
# condition_parameters: method [b]
quantity_kind: logP[b]

Study these solved cases before continuing.
Cc1cc(F)c(N2C(=O)CN(C(=O)N(C)C3CC3)C2=O)cc1[S+]([O-])CC(F)(F)F (stereo not drawn): 2.16
Cc1cc(F)c(N2C(=O)CN(C(=O)Nc3cccc(Cl)c3)C2=O)cc1SCC(F)(F)F: 4.16
Cc1cc(F)c(N2C(=O)N(C(=O)NCc3ccccc3)C(C)(C)C2=O)cc1[S+]([O-])CC(F)(F)F (racemic): 3.38
Cc1cc(C)c([S+]([O-])CC(F)(F)F)cc1N1C(=O)CN(C(=O)Nc2ccc(F)cc2)C1=O (racemic): 2.92
CCNC(=O)N1CC(=O)N(c2cc([S+]([O-])CC(F)(F)F)c(Cl)cc2Cl)C1=O (racemic): 2.59
Cc1cc(C)c(N2C(=O)CN(C(=O)NCc3ccccc3)C2=O)cc1SCC(F)(F)F: 3.66

(P) O=C(NCc1ccccc1)N1CC(=O)N(c2cc([S+]([O-])CC(F)(F)F)c(Cl)cc2Cl)C1=O (racemic)
(Q) COCCNC(=O)N1CC(=O)N(c2cc([S+]([O-])CC(F)(F)F)c(C)cc2F)C1=O (racemic)
Out of P and Q , name the one with the higher logP[b]. Mark your selection by writing its label.
P
(P: 3.29, Q: 1.94)

###

# experiment: log P determination by HPLC on reversed-phase columns (C 18), analogous to OECD Guideline 117
# Format: physicochemical
# condition_parameters: method [a]
quantity_kind: logP[a]

Before answering, review these 5 worked examples.
Cc1cc(F)c(N2C(=O)CN(C(=O)Nc3cccc(F)c3)C2=O)cc1[S+]([O-])CC(F)(F)F (stereo not drawn) [compound 46]: 3.02
Cc1cc(F)c(N2C(=O)C(C)N(C(=O)NCc3ccccc3)C2=O)cc1SCC(F)(F)F (racemic) [compound 81]: 3.94
CCNC(=O)N1C(=O)N(c2cc([S+]([O-])CC(F)(F)F)c(C)cc2F)C(=O)C1(C)C (racemic) [compound 83]: 2.73
CCNC(=O)N1CC(=O)N(c2cc(SCC(F)(F)F)c(C)cc2Cl)C1=O [compound 51]: 3.19
Cc1cc(Cl)c(N2C(=O)CN(C(=O)NCc3ccccc3)C2=O)cc1[S+]([O-])CC(F)(F)F (racemic) [compound 70]: 2.95

(a) O=C(NCC(F)(F)F)N1CC(=O)N(c2cc(SCC(F)(F)F)c(Cl)cc2Cl)C1=O [compound 106]
(b) Cc1cc(F)c(N2C(=O)CN(C(=O)NCC(F)(F)F)C2=O)cc1[S+]([O-])CC(F)(F)F (single isomer, unassigned) [Ex. No. 136]
(c) Cc1cc(F)c(N2C(=O)CN(C(=O)Nc3cccnc3)C2=O)cc1[S+]([O-])CC(F)(F)F (stereo not drawn) [compound 20]
Form: Sort by [logP[a]] Order [ ascending ] Answer format: the labels, in the requested order.
c, b, a

(I) Cc1cc(F)c(N2C(=O)CN(C(=O)Nc3cccc(Cl)c3)C2=O)cc1SCC(F)(F)F [compound 45]
(II) Cc1cc(F)c(N2C(=O)CN(C(=O)Nc3cccnc3)C2=O)cc1SCC(F)(F)F [compound 17]
Looking only at measured logP[a], which entry is lower, I or II ? Pick one and reply with its label.
II
(II: 2.37, I: 4.23)
